Kindly supply the reported melting point values for the records listed here.

What value of measured melting point is listed for `Cc1ccc(Nc2c(F)cccc2Cl)c(CC(=O)Oc2ccc(C(N)=S)cc2)c1` ?
120 to 122 °C

Would you mind telling me what melting point value was observed for `CC(=O)Oc1ccccc1C(=O)Oc1ccc(C(N)=S)cc1` ?
154 to 156 °C

Hi there! I need melting point for each item below, if you can.
1. NC(=S)c1ccc(OC(=O)Cc2ccccc2Nc2c(Cl)cccc2Cl)cc1
2. COc1ccc2c(c1)c(CC(=O)Oc1ccc(C(N)=S)cc1)c(C)n2C(=O)c1ccc(Cl)cc1

["170 to 172 °C", "224 to 226 °C"]

* * *

- System: gastric damage
- Protocol Text: Incidence of gastric damage at end of the leukocyte adherence experiment
- Measurement Context: intragastric 30 μmol/kg (naproxen and Compound XX 60 μmol/kg); end of experiment
Outcome Measure: Percent Incidence of Gastric Damage (%)
Give bare numbers, in %.

Quick one: Percent Incidence of Gastric Damage for `Cc1ccc(Nc2c(F)cccc2Cl)c(CC(=O)Oc2ccc(C(N)=S)cc2)c1` ?
0

Would you kindly share the measured Percent Incidence of Gastric Damage for `CC(=O)Oc1ccccc1C(=O)Oc1ccc(C(N)=S)cc1` ?
0

Which value of Percent Incidence of Gastric Damage has been reported for `COc1ccc2c(c1)c(CC(=O)Oc1ccc(C(N)=S)cc1)c(C)n2C(=O)c1ccc(Cl)cc1` in the records?
0

Attention now turns to another entry.
Param item = `NC(=S)c1ccc(OC(=O)Cc2ccccc2Nc2c(Cl)cccc2Cl)cc1` ; retrieve measured Percent Incidence of Gastric Damage.
20
